Source of measurements: PubChem BioAssay AID488910

- test_name: preservation of ATP in cytokine-treated beta cells – cell-based, ATP luminescence, single point, primary screen (AID 488910)
- measurement_setup: INS-1E cytokine-induced death, 48 h, at 10 µM, stronger effect = higher value, normalised: neutral wells 0, positive control 100
Screen size: about 20,000 compounds; about 25 (0.1%) were called active. What follows is part of a selection rich in actives, with near analogues and random picks from the rest.
experimental_endpoint: protection from cytokine-induced ATP loss

> print(dat)
                               input.smiles                val
1  CNC[C@@H]1Oc2ccc(NS(=O)(=O)c3c(C)noc3C)cc2CC(=O)N([C@@H](C)CO)C[C@@H]1C  0.843% (inactive)
2  C[C@@H]1CN([C@H](C)CO)C(=O)Cc2cc(NS(=O)(=O)c3cn(C)cn3)ccc2O[C@@H]1CN(C)C(=O)Nc1ccccc1   10.7% (inactive)

q: Find the recorded protection from cytokine-induced ATP loss belonging to `Cc1ccc(S(=O)(=O)Nc2ccc3c(c2)C(=O)N([C@H](C)CO)C[C@H](C)[C@@H](CN(C)C(=O)NC(C)C)OCCCC[C@@H](C)O3)cc1` and report it.
a: 12.2% (inactive)

q: Please report the recorded protection from cytokine-induced ATP loss for `Cc1ccc(S(=O)(=O)N(C)C[C@@H]2Oc3c(NS(=O)(=O)c4ccc(F)cc4)cccc3C(=O)N([C@@H](C)CO)C[C@H]2C)cc1` .
a: 15.4% (inactive)
